- TARGET_OR_TEST_SYSTEM: mushroom tyrosinase (Agaricus bisporus)
- Construct: purchased Sigma Chemical Co. T3824-50KU
- METHOD_DESCRIPTION: Affinity-based ultrafiltration UPLC-QTOF-MS binding experiment
- STATED_CONDITIONS: UPLC-QTOF-MS peak area in 1000 ppm extract after incubation with mTyr
ENDPOINT_LABEL: after tyrosinase (area)
Record the value in area, omitting the unit from your answer.

Task: Requested field: after tyrosinase (area). Item: O=C(OC1C2C=COC(OC3OC(CO)C(O)C(O)C3O)C2C2(CO)OC12)c1ccc(O)c(O)c1 (centres unmarked) [Verproside (1), Verproside]
Result: 61907

Task: Query COc1ccc(/C=C/C(=O)O[C@H]2[C@@H]3C=CO[C@@H](O[C@@H]4O[C@H](CO)[C@@H](O)[C@H](O)[C@H]4O)[C@@H]3[C@@]3(CO)O[C@@H]23)cc1O [Minecoside (8), Minecoside] next
Result: 465

Task: Follow-up item: O=C(OC1C2CC3OCC(O)(C1Cl)C2C(OC1OC(CO)C(O)C(O)C1O)O3)c1ccc(O)c(O)c1 (centres unmarked) [Piscroside C (6), Piscroside C]
Result: 22171

Task: Please answer likewise for O=C(O[C@H]1[C@@H]2C=CO[C@@H](O[C@@H]3O[C@H](CO)[C@@H](O)[C@H](O)[C@H]3O)[C@@H]2[C@@]2(CO)O[C@@H]12)c1ccc(O)cc1 [Catalposide (3), Catalposide]
Result: 21250

Task: Let us now turn to COc1ccc(C(=O)OC2C3C=COC(OC4OC(CO)C(O)C(O)C4O)C3C3(CO)OC23)cc1OC (centres unmarked)
Result: 11932

* * *

I'd be grateful if you could share measured inhibition at 100 µM for these entries.
- TARGET_OR_TEST_SYSTEM: Mushroom tyrosinase (mTyr) (Agaricus bisporus, UniProt C7FF04)
- Construct: purchased Sigma Chemical Co. T3824-50KU
- METHOD_DESCRIPTION: Mushroom tyrosinase inhibition, L-tyrosine substrate (monophenolase)
- Type: biochemical
- STATED_CONDITIONS: read-out: Mushroom Tyrosinase L-Tyrosine 100 µM inhibition (%)
- Sequence (C7FF04 1-392): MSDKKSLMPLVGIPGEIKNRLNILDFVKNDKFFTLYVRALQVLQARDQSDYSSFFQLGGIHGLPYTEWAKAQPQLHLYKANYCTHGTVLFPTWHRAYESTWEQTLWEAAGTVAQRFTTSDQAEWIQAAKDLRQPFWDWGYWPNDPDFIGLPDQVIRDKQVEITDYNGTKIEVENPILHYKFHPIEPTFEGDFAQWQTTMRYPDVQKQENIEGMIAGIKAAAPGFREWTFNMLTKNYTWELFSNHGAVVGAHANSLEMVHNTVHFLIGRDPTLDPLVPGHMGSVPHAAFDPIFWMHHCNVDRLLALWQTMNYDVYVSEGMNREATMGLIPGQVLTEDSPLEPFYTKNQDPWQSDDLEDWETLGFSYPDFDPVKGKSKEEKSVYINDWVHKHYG
Give the value, in units of %, as a plain number.

Task: Using the record for O=C(O[C@H]1[C@@H]2C=CO[C@@H](O[C@@H]3O[C@H](CO)[C@@H](O)[C@H](O)[C@H]3O)[C@@H]2[C@@]2(CO)O[C@@H]12)c1ccc(O)cc1 [Catalposide (3), Catalposide] , report its inhibition at 100 µM.
Result: 9.9

Task: What would you report for O=C(OC1C2C=COC(OC3OC(CO)C(O)C(O)C3O)C2C(O)(CO)C1Cl)c1ccc(O)c(O)c1 (centres unmarked) [Longifolioside A (2), Longifolioside A] ?
Result: 36

Task: Another compound to look at: O=C(OC1C2C=COC(OC3OC(CO)C(O)C(O)C3O)C2C2(CO)OC12)c1ccc(O)c(O)c1 (centres unmarked) [Verproside (1), Verproside]
Result: 98.4

Task: Cool, now COc1ccc(C(=O)OC2C3C=COC(OC4OC(CO)C(O)C(O)C4O)C3C3(CO)OC23)cc1O (centres unmarked)
Result: 10.1

Task: Same for COc1ccc(/C=C/C(=O)O[C@H]2[C@@H]3C=CO[C@@H](O[C@@H]4O[C@H](CO)[C@@H](O)[C@H](O)[C@H]4O)[C@@H]3[C@@]3(CO)O[C@@H]23)cc1O [Minecoside (8), Minecoside]
Result: 41.7

* * *

- TARGET_OR_TEST_SYSTEM: recombinant human tyrosinase (hTyr) (Homo sapiens)
- Construct: His-tag; purchased Enzo Life Sciences BML-SE535-0100
- Sequence (P14679 19-529): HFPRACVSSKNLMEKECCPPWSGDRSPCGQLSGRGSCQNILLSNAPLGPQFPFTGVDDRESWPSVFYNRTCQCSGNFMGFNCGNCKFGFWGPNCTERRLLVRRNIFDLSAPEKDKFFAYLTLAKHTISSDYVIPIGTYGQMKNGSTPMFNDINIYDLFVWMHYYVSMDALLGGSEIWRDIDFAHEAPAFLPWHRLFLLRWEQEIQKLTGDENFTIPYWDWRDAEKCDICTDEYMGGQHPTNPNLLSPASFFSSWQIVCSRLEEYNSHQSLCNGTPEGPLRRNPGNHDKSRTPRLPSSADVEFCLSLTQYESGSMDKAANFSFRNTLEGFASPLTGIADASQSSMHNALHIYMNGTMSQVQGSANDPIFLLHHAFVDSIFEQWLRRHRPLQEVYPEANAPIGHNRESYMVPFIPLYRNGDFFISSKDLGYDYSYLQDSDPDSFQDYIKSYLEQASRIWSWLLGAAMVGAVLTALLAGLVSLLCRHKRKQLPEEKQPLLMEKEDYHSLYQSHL
- METHOD_DESCRIPTION: Human tyrosinase inhibition, L-DOPA substrate
- Format: biochemical
ENDPOINT_LABEL: IC50 (µM)
Answer format: numeric, µM implied, no suffix.

Task: Which value of IC50 has been reported for O=C(OC1C2C=COC(OC3OC(CO)C(O)C(O)C3O)C2C2(CO)OC12)c1ccc(O)c(O)c1 (stereo not shown) [Verproside (1), Verproside] in the records?
Result: 843

* * *

- TARGET_OR_TEST_SYSTEM: Mushroom tyrosinase (mTyr) (Agaricus bisporus)
- Construct: purchased Sigma Chemical Co. T3824-50KU
- METHOD_DESCRIPTION: Mushroom tyrosinase inhibition, L-tyrosine substrate (monophenolase)
- Assay type: biochemical
- STATED_CONDITIONS: mTyr, L-tyrosine substrate (monophenolase); read-out: Mushroom Tyrosinase L-Tyrosine IC50
ENDPOINT_LABEL: IC50 (µM)
// return numeric value only (unit: µM, not printed)

Task: Any idea what IC50 came out for COc1ccc(/C=C/C(=O)O[C@H]2[C@@H]3C=CO[C@@H](O[C@@H]4O[C@H](CO)[C@@H](O)[C@H](O)[C@H]4O)[C@@H]3[C@@]3(CO)O[C@@H]23)cc1O [Minecoside (8), Minecoside] on Mushroom tyrosinase (mTyr) (Agaricus bisporus)?
Result: 132

Task: Also O=C(OC1C2C=COC(OC3OC(CO)C(O)C(O)C3O)C2C(O)(CO)C1Cl)c1ccc(O)c(O)c1 (centres unmarked) [Longifolioside A (2), Longifolioside A] , if possible.
Result: 193

* * *

- Test system: mushroom tyrosinase
- METHOD_DESCRIPTION: Affinity-based ultrafiltration UPLC-QTOF-MS binding experiment
- STATED_CONDITIONS: UPLC-QTOF-MS peak area in 1000 ppm extract, not exposed to enzyme
# label = y if Control (area) >= 20000 area else n

Task: Check the entry COc1ccc(C(=O)OC2C3C=COC(OC4OC(CO)C(O)C(O)C4O)C3C3(CO)OC23)cc1OC (stereo not drawn) : does Control (area) equal or exceed 20000 area?
Result: n

Task: Can you handle O=C(/C=C/c1ccc(O)c(O)c1)O[C@@H]1C2C=CO[C@H](O[C@@H]3O[C@H](CO)[C@@H](O)[C@H](O)[C@H]3O)C2[C@]2(CO)O[C@H]12 (stereo partly drawn) [Verminoside (4), Verminoside] next?
Result: n

Task: Next: COc1ccc(C(=O)OC2C3C=COC(OC4OC(CO)C(O)C(O)C4O)C3C3(CO)OC23)cc1O (stereo not drawn)
Result: n

Task: Try this compound next: O=C(OC1C2C=COC(OC3OC(CO)C(O)C(O)C3O)C2C(O)(CO)C1Cl)c1ccc(O)c(O)c1 (stereo not drawn) [Longifolioside A (2), Longifolioside A]
Result: n

Task: What do we get for O=C(O[C@H]1[C@@H]2C=CO[C@@H](O[C@@H]3O[C@H](CO)[C@@H](O)[C@H](O)[C@H]3O)[C@@H]2[C@@]2(CO)O[C@@H]12)c1ccc(O)cc1 [Catalposide (3), Catalposide] ?
Result: y

Task: Subsequent entry: O=C(OC1C2CC3OCC(O)(C1Cl)C2C(OC1OC(CO)C(O)C(O)C1O)O3)c1ccc(O)c(O)c1 (stereo not drawn) [Piscroside C (6), Piscroside C]
Result: y

* * *

- TARGET_OR_TEST_SYSTEM: Mushroom tyrosinase (mTyr) (Agaricus bisporus, UniProt C7FF04)
- Construct: purchased Sigma Chemical Co. T3824-50KU
- METHOD_DESCRIPTION: Mushroom tyrosinase inhibition, L-tyrosine substrate (monophenolase)
- Format: biochemical
- STATED_CONDITIONS: read-out: Mushroom Tyrosinase L-Tyrosine 100 µM inhibition (%)
ENDPOINT_LABEL: inhibition at 100 µM (%)
Reply with just the number (in %).

Task: Consider the molecule O=C(/C=C/c1ccc(O)c(O)c1)O[C@@H]1C2C=CO[C@H](O[C@@H]3O[C@H](CO)[C@@H](O)[C@H](O)[C@H]3O)C2[C@]2(CO)O[C@H]12 (stereo partly shown) [Verminoside (4), Verminoside] and give its measured inhibition at 100 µM.
Result: 8.9

Task: And then COc1cc(C(=O)O[C@H]2[C@@H]3C=CO[C@@H](O[C@@H]4O[C@H](CO)[C@@H](O)[C@H](O)[C@H]4O)[C@@H]3[C@@]3(CO)O[C@@H]23)ccc1O [Picroside II (5), Picroside II] , what is it?
Result: 5.3

Task: For O=C(OC1C2CC3OCC(O)(C1Cl)C2C(OC1OC(CO)C(O)C(O)C1O)O3)c1ccc(O)c(O)c1 (stereo not shown) [Piscroside C (6), Piscroside C] then?
Result: 6.7

Task: Repeat for the following molecule: COc1ccc(C(=O)OC2C3C=COC(OC4OC(CO)C(O)C(O)C4O)C3C3(CO)OC23)cc1OC (stereo not shown)
Result: 6.1

* * *

- TARGET_OR_TEST_SYSTEM: Mushroom tyrosinase (mTyr) (Agaricus bisporus, UniProt C7FF04)
- Construct: purchased Sigma Chemical Co. T3824-50KU
- METHOD_DESCRIPTION: Mushroom tyrosinase inhibition, L-DOPA substrate (diphenolase)
- Assay type: biochemical
- STATED_CONDITIONS: mTyr, L-DOPA substrate; read-out: Mushroom Tyrosinase L-DOPA IC50
- Sequence (C7FF04 1-392 limits assumed): as the sequence (C7FF04 1-392) above
pIC50: −log10 of the molar value.
ENDPOINT_LABEL: pIC50

Task: Using the record for O=C(OC1C2C=COC(OC3OC(CO)C(O)C(O)C3O)C2C(O)(CO)C1Cl)c1ccc(O)c(O)c1 (centres unmarked) [Longifolioside A (2), Longifolioside A] , report its pIC50.
Result: < 3.70

Task: Please answer likewise for O=C(O[C@H]1[C@@H]2C=CO[C@@H](O[C@@H]3O[C@H](CO)[C@@H](O)[C@H](O)[C@H]3O)[C@@H]2[C@@]2(CO)O[C@@H]12)c1ccc(O)cc1 [Catalposide (3), Catalposide]
Result: < 3.70

Task: Would you mind doing COc1ccc(/C=C/C(=O)O[C@H]2[C@@H]3C=CO[C@@H](O[C@@H]4O[C@H](CO)[C@@H](O)[C@H](O)[C@H]4O)[C@@H]3[C@@]3(CO)O[C@@H]23)cc1O [Minecoside (8), Minecoside] as well?
Result: < 3.70

Task: Similarly, O=C(OC1C2C=COC(OC3OC(CO)C(O)C(O)C3O)C2C2(CO)OC12)c1ccc(O)c(O)c1 (centres unmarked) [Verproside (1), Verproside] ?
Result: 3.75

Task: Please give the result for O=C(/C=C/c1ccc(O)c(O)c1)O[C@@H]1C2C=CO[C@H](O[C@@H]3O[C@H](CO)[C@@H](O)[C@H](O)[C@H]3O)C2[C@]2(CO)O[C@H]12 (some centres unmarked) [Verminoside (4), Verminoside] too.
Result: < 3.70
